The values you see were collected from the Human Domainome abundance scans (Beltran et al. 2025).

B1: POU domain, class 3, transcription factor 4, residues 280 to 335; numbered along this chain, P49335 (parent)
chain: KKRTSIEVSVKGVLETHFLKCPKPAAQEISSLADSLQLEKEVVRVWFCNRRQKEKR

Variants of: B1
Assay Explanation: abundance fitness (aPCA) (normalised: wild type 0, dead -1); higher = more abundant; growth selection in yeast, the domain comes from the species named
Reported Conditions: Homo sapiens
Outcome: 1.0 for abundance fitness of at least -0.3; 0.0 for anything lower.

Worked examples follow.
Lookup: Would you say R56Y shows abundance fitness at minimum -0.3?
Found: 1.0

Lookup: // repeat for A26E and report
Found: 1.0

Lookup: Please answer likewise for K53M
Found: 1.0

Turning now to a further variant:
Lookup: Is it the case that E39W has abundance fitness reaching or exceeding -0.3?
Found: 0.0
